Target: T1, human KLK5, active form (human, UniProt Q9Y337 67-293)
T1 construct: mature; also called hKLK5; huKLK5
T1 sequence (Q9Y337 67-293 limits assumed): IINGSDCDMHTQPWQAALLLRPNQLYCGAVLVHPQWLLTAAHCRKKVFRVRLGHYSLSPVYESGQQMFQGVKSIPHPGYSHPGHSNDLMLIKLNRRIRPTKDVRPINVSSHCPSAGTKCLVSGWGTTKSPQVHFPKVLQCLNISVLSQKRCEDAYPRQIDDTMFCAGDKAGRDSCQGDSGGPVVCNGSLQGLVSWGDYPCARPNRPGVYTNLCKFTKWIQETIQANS
Procedure Summary: SPR (Biacore), antibody captured on Protein A chip, KLK as analyte, single-cycle kinetics, 25 C
Readout Name: Kd

Request: Field request: Kd | item: KLK5/KLK7-Dual-Ab3 (antibody, V domains shown, Captured on a Protein A chip as an antibody; also called KLK5/7-Dual-Ab3) VH: QLQLQESGPGLVKPSETLSLTCTVSGGSISSDDYYWVWIRQPPGKGLEWIGSIDYYASTYYSPSLKSRVTISVDTSKNQFSLKLSSVTAADTAVYYCARGRPLGYGAKHYYYGMDVWGQGTTVTVSS VL: DIQMTQSPSSLSASVGDRVTITCRASQSISSYLNWYQQKPGKAPKLLIYSASSLQSGVPSRFSGSGSGTDFTLTISSLQPEDFATYYCQQSPYFPPLTFGGGTKVEIK
Response: 0.141 nM

Origin of the recorded values: patent US20260258156A1
